# system name: human GLP-1 receptor (human, UniProt P43220 24-463)
# assay method text: cell-based or functional assay
Bridge positions count the residues as written; N and C are the ends. Square brackets hold non-standard residues; d marks the D form. Ends that are not written are not given here. * marks the point of attachment. Acetyl(2-(4-imidazolyl)) = O=C(Cc1c[nH]cn1)*; Aib = CC(C)(N)C(=O)O
In vitro activity compared to native peptide (%) vs GLP-1: recorded values
Could you give me the number in %? Just the number is fine.

Consider the reported In vitro activity compared to native peptide (%) vs GLP-1 for these binders:
Please list In vitro activity compared to native peptide (%) vs GLP-1 recorded for the binder H[Aib]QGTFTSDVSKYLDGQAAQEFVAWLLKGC [Triple agonist of SEQ ID NO: 8] 14.2

Please list In vitro activity compared to native peptide (%) vs GLP-1 recorded for the binder {Acetyl(2-(4-imidazolyl))}-GQGTFTSDLSKQMDEERAREFIEWLLAQKPSSGAPPPSHG [Triple agonist of SEQ ID NO: 17] 0.2

Please list In vitro activity compared to native peptide (%) vs GLP-1 recorded for the binder {Acetyl(2-(4-imidazolyl))}-[Aib]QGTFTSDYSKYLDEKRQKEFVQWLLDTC (bridge 15-19) [Triple agonist of SEQ ID NO: 82] 9.5

// next entry
Please list In vitro activity compared to native peptide (%) vs GLP-1 recorded for the binder {Acetyl(2-(4-imidazolyl))}-[Aib]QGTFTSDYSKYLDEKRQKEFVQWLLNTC (bridge 15-19) [Triple agonist of SEQ ID NO: 81] 7.8
